# assay: Bidirectional permeability assay (Caco-2 cells)
# Assay type: in vitro ADME
# measurement.setup: human, Caco-2, pH 7.4; absorptive direction (A2B), 120 minutes at 37° C., FaSSIF buffer
metric: Papp A→B at 120 min, 10 µM (×10⁻⁶ cm/s)

A: CCCCC1(CC)CN(c2ccccc2)c2cc(SC)c(OCC(=O)O)cc2S(=O)(=O)N1 (centres unmarked)
B: CCCC[C@@]1(CC)CN(c2ccccc2)c2cc(SC)c(OCC(=O)O)cc2S(=O)(=O)N1 (single isomer, unassigned)
Ask: // compare measured Papp A→B at 120 min, 10 µM, left A , right B , return larger Pick one; state its label.
Reply: B
(B: 2.52 ×10⁻⁶ cm/s, A: 1.1 ×10⁻⁶ cm/s)

###

# system.under.test: Human IBAT (Homo sapiens, UniProt Q12908)
# Construct: kept under Puromycin selection
# Sequence (Q12908 whole entry): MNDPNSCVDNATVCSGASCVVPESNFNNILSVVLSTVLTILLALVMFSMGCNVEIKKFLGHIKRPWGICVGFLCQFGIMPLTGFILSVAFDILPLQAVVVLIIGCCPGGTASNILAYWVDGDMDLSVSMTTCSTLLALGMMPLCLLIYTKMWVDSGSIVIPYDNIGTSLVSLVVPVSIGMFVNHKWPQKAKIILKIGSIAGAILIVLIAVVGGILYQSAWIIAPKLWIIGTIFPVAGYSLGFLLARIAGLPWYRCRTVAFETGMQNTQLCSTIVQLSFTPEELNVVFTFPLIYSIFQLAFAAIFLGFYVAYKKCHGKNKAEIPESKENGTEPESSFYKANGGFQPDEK
# assay: IBAT (h/m) assay: 3H-taurocholic acid uptake in human IBAT-overexpressing cells
# measurement.setup: 0.25 μM 3H-taurocholic acid and 5 μM cold taurocholic acid, read-out: hIBAT IC50
metric: IC50 (nM)

Ask: Which IC50 reading was recorded for the compound CCCC[C@@]1(CC)CN(c2ccccc2)c2cc(SC)c(OCC(=O)O)cc2S(=O)(=O)N1 (single isomer, unassigned) [Example 2] ?
Reply: 5.7

A: CCCCC1(CC)CN(c2ccccc2)c2cc(SC)c(OCC(=O)O)cc2S(=O)(=O)N1 (stereo not drawn) [Example 1]
B: CCCC[C@]1(CC)CN(c2ccccc2)c2cc(SC)c(OCC(=O)O)cc2S(=O)(=O)N1 (single isomer, unassigned) [Example 3]
Ask: Could you determine which record has the numerically smaller IC50? Candidates: A and B To answer, give the label that identifies your chosen option.
Reply: A
